system: SK-OV-3; assay: Cell growth inhibition experiment (SRB), SK-OV-3; format: cell-based, human; conditions: Homo sapiens, SK-OV-3, 96 h, 96 hours incubation, read-out: IC50 (μM) for cancer cell line SK-OV-3
Measured IC50 of individual entries
experimentalReadout: IC50

| smilesData | experimentalReadout | result |
| --- | --- | --- |
| CCOc1nc2oc(Cl)cc2nc1NC(=O)N1CCN(c2cc(F)cc(C(F)(F)F)c2)CC1 | IC50 | < 2.5 µM |
| CCOc1nc2oc(C)cc2nc1NC(=O)N1CCN(c2cc(F)cc(F)c2)CC1 | IC50 | 2.13 µM |
| COc1nc2occc2nc1NC(=O)N1CCN(c2cc(F)cc(C(F)(F)F)c2)CC1 | IC50 | < 2.5 µM |
| COc1nc2oc(Cl)cc2nc1NC(=O)N1CCN(c2cc(C)cc(C)c2)CC1 | IC50 | < 2.5 µM |
| CCOc1nc2occc2nc1NC(=O)N1CCN(c2cc(OC)cc(OC)c2)CC1 | IC50 | 1.27 µM |
| CCOc1nc2occc2nc1NC(=O)N1CCN(c2cc(C)cc(C)c2)CC1 | IC50 | < 2.5 µM |
| CCOc1nc2oc(Cl)cc2nc1NC(=O)N1CCN(c2cc(OC)cc(OC)c2)CC1 | IC50 | < 2.5 µM |
| CCOc1nc2oc(C)cc2nc1NC(=O)N1CCN(c2cc(F)cc(OC)c2)CC1 | IC50 | < 2.5 µM |
| CCOc1nc2oc(C)cc2nc1NC(=O)N1CCN(c2cc(C(F)(F)F)cc(C(F)(F)F)c2)CC1 | IC50 | < 2.5 µM |
| CCOc1nc2oc(C)cc2nc1NC(=O)N1CCN(c2cc(F)cc(C(F)(F)F)c2)CC1 | IC50 | < 2.5 µM |
| CCOc1nc2oc(Cl)cc2nc1NC(=O)N1CCN(c2cc(C(F)(F)F)cc(C(F)(F)F)c2)CC1 | IC50 | < 2.5 µM |
| CCOc1nc2oc(Cl)cc2nc1NC(=O)N1CCN(c2cc(OC)cc(OCCN(C)C)c2)CC1 | IC50 | < 2.5 µM |
| CCOc1nc2oc(Cl)cc2nc1NC(=O)N1CCN(c2cc(F)cc(OC)c2)CC1 | IC50 | 1.91 µM |
| CCOc1nc2occc2nc1NC(=O)N1CCN(c2cc(F)cc(C(F)(F)F)c2)CC1 | IC50 | < 2.5 µM |

###

test system: HEK293; test: Cell growth inhibition experiment (SRB), HEK293; assay type: cell-based, human; details: Homo sapiens, HEK293, 96 h, 96 hours incubation, read-out: IC50 (μM) for cancer cell line HEK293
Below: a set of entries, each annotated with reported IC50.

| smilesData | valueUnit | relationSign | IC50 |
| --- | --- | --- | --- |
| CCOc1nc2oc(Cl)cc2nc1NC(=O)N1CCN(c2cc(OC)cc(OCCN(C)C)c2)CC1 | µM | = | 1.65 |
| CCOc1nc2occc2nc1NC(=O)N1CCN(c2cc(OC)cc(OC)c2)CC1 | µM | = | 0.65 |
| CCOc1nc2oc(Cl)cc2nc1NC(=O)N1CCN(c2cc(C)cc(F)c2)CC1 | µM | < | 2.5 |
| CCOc1nc2occc2nc1NC(=O)N1CCN(c2cc(C)cc(F)c2)CC1 | µM | < | 2.5 |
| CCOc1nc2occc2nc1NC(=O)N1CCN(c2cc(F)cc(C(F)(F)F)c2)CC1 | µM | < | 2.5 |
| CCOc1nc2oc(C)cc2nc1NC(=O)N1CCN(c2cc(C)cc(C)c2)CC1 | µM | = | 1.12 |
| CCOc1nc2oc(C)cc2nc1NC(=O)N1CCN(c2cc(F)cc(C(F)(F)F)c2)CC1 | µM | < | 2.5 |
| CCOc1nc2occc2nc1NC(=O)N1CCN(c2cc(F)cc(OC)c2)CC1 | µM | < | 2.5 |
| CCOc1nc2oc(Cl)cc2nc1NC(=O)N1CCN(c2cc(C)cc(OC)c2)CC1 | µM | = | 1.74 |
| COc1nc2occc2nc1NC(=O)N1CCN(c2cc(C)cc(C)c2)CC1 | µM | < | 2.5 |
| COc1nc2occc2nc1NC(=O)N1CCN(c2cc(C)cc(F)c2)CC1 | µM | = | 1.83 |
| COc1cc(F)cc(N2CCN(C(=O)Nc3nc4cc(Cl)oc4nc3OC)CC2)c1 | µM | = | 1.32 |
| CCOc1nc2oc(Cl)cc2nc1NC(=O)N1CCN(c2cc(OC)cc(OC)c2)CC1 | µM | < | 2.5 |
| COc1cc(OC)cc(N2CCN(C(=O)Nc3nc4ccoc4nc3OC)CC2)c1 | µM | = | 0.63 |
| CCOc1nc2oc(C)cc2nc1NC(=O)N1CCN(c2cccc(OC(F)(F)F)c2)CC1 | µM | < | 2.5 |
| CCOc1nc2oc(Cl)cc2nc1NC(=O)N1CCN(c2cc(F)cc(OC)c2)CC1 | µM | = | 1.98 |
| COc1nc2oc(Cl)cc2nc1NC(=O)N1CCN(c2cc(F)cc(F)c2)CC1 | µM | = | 0.63 |
| CCOc1nc2oc(C)cc2nc1NC(=O)N1CCN(c2cc(F)cc(F)c2)CC1 | µM | = | 1.63 |
| CCOc1nc2occc2nc1NC(=O)N1CCN(c2cc(C)cc(C)c2)CC1 | µM | < | 2.5 |
| COc1nc2oc(C)cc2nc1NC(=O)N1CCN(c2cc(C)cc(F)c2)CC1 | µM | < | 2.5 |
| CCOc1nc2oc(C)cc2nc1NC(=O)N1CCN(c2cc(OC)cc(OC)c2)CC1 | µM | < | 2.5 |
| COc1cc(F)cc(N2CCN(C(=O)Nc3nc4ccoc4nc3OC)CC2)c1 | µM | < | 2.5 |
| COc1nc2oc(C)cc2nc1NC(=O)N1CCN(c2cc(C)cc(C)c2)CC1 | µM | = | 0.36 |
| CCOc1nc2oc(Cl)cc2nc1NC(=O)N1CCN(c2cc(C(F)(F)F)cc(C(F)(F)F)c2)CC1 | µM | < | 2.5 |
| COc1nc2occc2nc1NC(=O)N1CCN(c2cc(F)cc(F)c2)CC1 | µM | < | 2.5 |
| COc1cc(C)cc(N2CCN(C(=O)Nc3nc4ccoc4nc3OC)CC2)c1 | µM | = | 1.93 |
| COc1cc(F)cc(N2CCN(C(=O)Nc3nc4cc(C)oc4nc3OC)CC2)c1 | µM | = | 0.35 |
| COc1nc2oc(C)cc2nc1NC(=O)N1CCN(c2cccc(OC(F)(F)F)c2)CC1 | µM | = | 0.58 |
| CCOc1nc2oc(C)cc2nc1NC(=O)N1CCN(c2cc(C)cc(OC)c2)CC1 | µM | = | 1.12 |
| COc1nc2oc(Cl)cc2nc1NC(=O)N1CCN(c2cc(C)cc(F)c2)CC1 | µM | < | 2.5 |
| COc1nc2oc(C)cc2nc1NC(=O)N1CCN(c2cc(F)cc(C(F)(F)F)c2)CC1 | µM | < | 2.5 |
| COc1nc2oc(Cl)cc2nc1NC(=O)N1CCN(c2cc(C)cc(C)c2)CC1 | µM | = | 2.01 |
| COc1cc(OC)cc(N2CCN(C(=O)Nc3nc4cc(C)oc4nc3OC)CC2)c1 | µM | = | 1.25 |
| CCOc1nc2occc2nc1NC(=O)N1CCN(c2cccc(OC(F)(F)F)c2)CC1 | µM | = | 0.12 |
| COc1cc(OC)cc(N2CCN(C(=O)Nc3nc4cc(Cl)oc4nc3OC)CC2)c1 | µM | = | 1.66 |

###

tested on: PANC-1 (pancreatic cancer) cell line; test: Cell growth inhibition experiment (SRB), PANC-1; type: cell-based; settings: Homo sapiens, PANC-1, 96 h, 96 hours incubation
Values of IC50 strictly less than 0.6 µM map to Fulfilled, and values of at least 0.6 µM map to Not fulfilled.

| smilesData | labelClass |
| --- | --- |
| COc1nc2occc2nc1NC(=O)N1CCN(c2cc(C)cc(C)c2)CC1 | Not fulfilled |
| COc1nc2oc(Cl)cc2nc1NC(=O)N1CCN(c2cc(C(F)(F)F)cc(C(F)(F)F)c2)CC1 | Not fulfilled |
| COc1nc2occc2nc1NC(=O)N1CCN(c2cc(C)cc(F)c2)CC1 | Not fulfilled |
| CCOc1nc2occc2nc1NC(=O)N1CCN(c2cccc(OC(F)(F)F)c2)CC1 | Fulfilled |
| COc1nc2occc2nc1NC(=O)N1CCN(c2cc(F)cc(C(F)(F)F)c2)CC1 | Not fulfilled |

The values you see were collected from patent US10800788B2.
